system: dCK-C3S-S74E; assay: Enzymatic assay (PK/LDH coupled), dC phosphorylation by dCK in the presence of ATP; format: biochemical, human; conditions: 10 µM
Sequence (P27707 whole entry S74E, form open): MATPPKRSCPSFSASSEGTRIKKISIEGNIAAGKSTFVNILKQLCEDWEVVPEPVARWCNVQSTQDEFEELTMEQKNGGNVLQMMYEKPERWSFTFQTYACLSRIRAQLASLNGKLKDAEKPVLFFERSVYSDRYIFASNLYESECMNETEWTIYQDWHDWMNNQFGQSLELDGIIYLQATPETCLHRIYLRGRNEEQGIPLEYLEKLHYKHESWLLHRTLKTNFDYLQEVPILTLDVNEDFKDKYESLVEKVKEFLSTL
parameterMeasured: Enzymatic activity (ATP) Mean (% activity) (%)

Would you please look over these solved cases?
{"smilesRepr": "Cc1ccc(-c2ccc(CN3CCN(C)CC3)cc2)cc1Nc1nc(-c2nccc(N)n2)cs1", "assayResult": 11.9}
{"smilesRepr": "Cc1ccc(-c2ccc(CCN3CCN(C)CC3)cc2)cc1Nc1nc(-c2nccc(N)n2)cs1", "assayResult": 11.6}

(A) Cc1ccc(NC(=O)c2ccc(CN3CCN(C)CC3)cc2)cc1Nc1nc(-c2nc(N)cc(N)n2)cs1
(B) CCCN(c1nc(-c2nc(N)cc(N)n2)cs1)c1cc(-c2ccc(CCN3CCN(C)CC3)cc2)ccc1C
(C) Cc1ccc(NC(=O)c2ccc(CN3CCN(C)CC3)cc2)cc1Nc1nc(-c2nccc(N)n2)cs1
(D) CCCN(c1nc(-c2nccc(N)n2)cs1)c1cc(-c2ccc(CCN3CCN(C)CC3)cc2)ccc1C
Ask | Sort low-to-high on Enzymatic activity (ATP) Mean (% activity), please. Answer format: list of labels, ordered as asked.
Reply | D, B, A, C
(D: -7.8%, B: -3.1%, A: 3.9%, C: 11.5%)
